The entries below come with measured growth values attached.
Test system: SNB-75 CNS
protocol-notes: NCI-60 one-dose screen, 48 h (100 = growth as untreated, 0 = no growth, -100 = all killed)
experimental-parameters: 10 µM unless noted
Compounds without any hit were thinned out: in the full panel of roughly 83,000, 20% have a hit. Activity calls are given as the source filed them. The calls were made as follows: active = growth percent below 10; inactive = the rest.

- CC(O)C(O)C(O)C(O)C(O)C(=O)NNc1ccccc1 (stereo not given): 82.6% (inactive)
- Oc1ccc2c(c1)CCc1ccccc1-2: 56.1% (inactive)

Prompt line: Assign growth to the following record: N=C1C=C(N)C(=O)c2ccccc21
Response line: -99.1% (active)

Prompt line: Assign growth to the following record: O=C1C=Cc2ccccc2/C1=C/c1nc(-c2ccccc2)oc1O
Response line: 70.8% (inactive)

Prompt line: Assign growth to the following record: CN(C)c1ccc2cc3c(cc2c1)Oc1ccccc1N3.[Cl][Zn][Cl]
Response line: 103% (inactive)

Data origin, for the record: PubChem BioAssay (NCI)
